Assay system: human V1a receptor (human) (UniProt P37288)
Sequence (P37288 whole entry): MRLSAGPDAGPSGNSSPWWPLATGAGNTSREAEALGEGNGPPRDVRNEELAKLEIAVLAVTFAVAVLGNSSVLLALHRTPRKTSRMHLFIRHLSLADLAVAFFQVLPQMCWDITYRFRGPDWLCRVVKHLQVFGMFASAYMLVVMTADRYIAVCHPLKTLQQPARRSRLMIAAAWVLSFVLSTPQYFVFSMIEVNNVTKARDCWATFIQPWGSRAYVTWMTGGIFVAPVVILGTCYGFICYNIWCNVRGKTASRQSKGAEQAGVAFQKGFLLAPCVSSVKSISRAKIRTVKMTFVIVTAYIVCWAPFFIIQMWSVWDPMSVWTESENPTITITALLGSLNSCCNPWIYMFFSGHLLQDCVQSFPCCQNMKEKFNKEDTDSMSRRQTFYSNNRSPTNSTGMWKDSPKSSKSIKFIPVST
Protocol: cell-based or functional assay
Reported endpoint: V1a Highest agonist effect (% of AVP)

1. XFXNCPXG (Mpa at position 1, disulfide bond between Mpa and Cys; Hgn at position 4; (Gly)3 on the side chain of Lys 8; C-terminal amide) [Mpa-Tyr-Phe-Hgn-Asn-Cys-Pro-Lys(X)a-Gly-NH2; (X)a = (Gly)3 [SEQ ID NO. 10]] : 32.9 % of AVP
2. XFXNCPXG (Mpa at position 1, disulfide bond between Mpa and Cys; Hgn at position 4; (Gly)7 on the side chain of Lys 8; C-terminal amide) [Mpa-Tyr-Phe-Hgn-Asn-Cys-Pro-Lys(X)a-Gly-NH2; (X)a = (Gly)7 [SEQ ID NO. 14]] : 26.1 % of AVP
3. XFXNCPXG (Mpa at position 1, disulfide bond between Mpa and Cys; Hgn at position 4; (Gly)2 on the side chain of Lys 8; C-terminal amide) [Mpa-Tyr-Phe-Hgn-Asn-Cys-Pro-Lys(X)a-Gly-NH2; (X)a = (Gly)2 [SEQ ID NO. 9]] : 37 % of AVP
4. XFXNCPXG (Mpa at position 1, disulfide bond between Mpa and Cys; Hgn at position 4; (Gly)8 on the side chain of Lys 8; C-terminal amide) [Mpa-Tyr-Phe-Hgn-Asn-Cys-Pro-Lys(X)a-Gly-NH2; (X)a = (Gly)8 [SEQ ID NO. 15]] : 24.8 % of AVP

*Q* # get_value(readout='V1a Highest agonist effect (% of AVP)', item= XFXNCPXG (Mpa at position 1, disulfide bond between Mpa and Cys; Hgn at position 4; (Gly)9 on the side chain of Lys 8; C-terminal amide) [Mpa-Tyr-Phe-Hgn-Asn-Cys-Pro-Lys(X)a-Gly-NH2; (X)a = (Gly)9 [SEQ ID NO. 16]] )
*A* 28.1 % of AVP

*Q* What do you get for XFXNCPXG (Mpa at position 1, disulfide bond between Mpa and Cys; Hgn at position 4; Gly on the side chain of Lys 8; C-terminal amide) [Mpa-Tyr-Phe-Hgn-Asn-Cys-Pro-Lys(X)-Gly-NH2; X = Gly [SEQ ID NO. 8]] ?
*A* 40.3 % of AVP

*Q* For XFXNCPXG (Mpa at position 1, disulfide bond between Mpa and Cys; Hgn at position 4; (Gly)4 on the side chain of Lys 8; C-terminal amide) [Mpa-Tyr-Phe-Hgn-Asn-Cys-Pro-Lys(X)a-Gly-NH2; (X)a = (Gly)4 [SEQ ID NO. 11]] then?
*A* 33.6 % of AVP

*Q* Can you handle XFXNCPXG (Mpa at position 1, disulfide bond between Mpa and Cys; Hgn at position 4; (Gly)6 on the side chain of Lys 8; C-terminal amide) [Mpa-Tyr-Phe-Hgn-Asn-Cys-Pro-Lys(X)a-Gly-NH2; (X)a = (Gly)6 [SEQ ID NO. 13]] next?
*A* 28.2 % of AVP

*Q* // repeat for XFXNCPXG (Mpa at position 1, disulfide bond between Mpa and Cys; Hgn at position 4; (Gly)5 on the side chain of Lys 8; C-terminal amide) [Mpa-Tyr-Phe-Hgn-Asn-Cys-Pro-Lys(X)a-Gly-NH2; (X)a = (Gly)5 [SEQ ID NO. 12]] and report
*A* 29.6 % of AVP

These entries and their values trace back to patent US20230248800A1.
